protocolNotes: Plasma concentrations and pharmacokinetic parameters after topical ocular, subcutaneous and intravitreal administration
Assay type: in vivo, New Zealand White rabbits
appliedConditions: New Zealand White, rabbit, plasma, other: intravitreal, 2.5 mg, plasma; intravitreal 2.5 mg/eye (~1.54 mg/kg), suspension

molecule: COC(=O)N[C@@H](Cc1ccccc1)C(=O)N[C@@H](Cc1ccc(NS(=O)(=O)O)cc1)c1csc(-c2cccs2)n1 [Compound 1 free acid]
MRT last: 19.1 h

---

protocolNotes: Ocular tissue concentrations (aqueous humor, vitreous humor, iris, retina, choroid, cornea) after topical ocular, subcutaneous and intravitreal administration
Type: in vivo, New Zealand White rabbits
appliedConditions: New Zealand White, rabbit, cornea, other: intravitreal, 2.5 mg/eye, Cornea, 72 hr, average, intravitreal 2.5 mg/eye (group 5); read-out: Avg.
Method: To measure the concentration of Compound 1 in plasma and ocular tissues following topical ocular, subcutaneous, and intravitreal administration, New Zealand White rabbits were administered Compound 1, and plasma and ocular samples were collected at pre-determined time points. […] Ocular tissue samples from both eyes of each animal were collected and weights were recorded. Plasma and ocular tissue sample concentrations of Compound 1 were determined by LC-MS/MS. […]

molecule: COC(=O)N[C@@H](Cc1ccccc1)C(=O)N[C@@H](Cc1ccc(NS(=O)(=O)O)cc1)c1csc(-c2cccs2)n1 [Compound 1]
concentration at 72 hr (ng/g): 762
